tested on: CAKI-1 renal; experiment: NCI tumour cell line growth inhibition, 48 h
Entries and their GI50 values follow.
RECORDED_METRIC: GI50

[
  {
    "COMPOUND": "COc1ccc(-c2nn(-c3ccc(NC(=O)Nc4ccc(Cl)c(C(F)(F)F)c4)cc3)cc2-c2ccncc2)cc1Cl",
    "RECORDED_METRIC": "GI50",
    "MEASURED_VALUE": "1.78 µM"
  },
  {
    "COMPOUND": "CC(O)c1cc(C(=O)N[C@@H](C)Cn2ccc(-c3ccc(C#N)c(Cl)c3)n2)n[nH]1 (stereo not given in full)",
    "RECORDED_METRIC": "GI50",
    "MEASURED_VALUE": "44.9 µM"
  },
  {
    "COMPOUND": "CC#Cc1nc(Nc2cc(C)[nH]n2)c2ccccc2n1",
    "RECORDED_METRIC": "GI50",
    "MEASURED_VALUE": "2.32 µM"
  },
  {
    "COMPOUND": "CC1=NN(c2nc(N)nc(/C=C\\c3ccc([N+](=O)[O-])s3)n2)C(C)(C)C1",
    "RECORDED_METRIC": "GI50",
    "MEASURED_VALUE": "> 100 µM"
  },
  {
    "COMPOUND": "O=C(NC(=S)Nc1cc(Cl)ccc1O)c1cccc(Br)c1",
    "RECORDED_METRIC": "GI50",
    "MEASURED_VALUE": "4.34 µM"
  }
]

----------
system: KM12 colon; assay: NCI tumour cell line growth inhibition, 48 h
# TGI >= 20 µM gives TRUE, anything below gives FALSE

[
  {
    "MOLECULE": "CCOC(=O)c1c(-c2cccc3ccccc23)c(C#N)c(=S)n(C2OC(COC(C)=O)C(OC(C)=O)C(OC(C)=O)C2OC(C)=O)c1C (stereo not given)",
    "MEASUREMENT_TARGET": "KM12 colon",
    "CLASSIFICATION": "TRUE"
  },
  {
    "MOLECULE": "O=C1OCC2=C1C(c1ccccc1)c1cc3c(cc1N2CCO)OCCO3 (stereo not given)",
    "MEASUREMENT_TARGET": "KM12 colon",
    "CLASSIFICATION": "FALSE"
  },
  {
    "MOLECULE": "Cc1ccc(CCC(=O)C(=O)O)s1",
    "MEASUREMENT_TARGET": "KM12 colon",
    "CLASSIFICATION": "TRUE"
  },
  {
    "MOLECULE": "N#CC(C#N)=C1C(=O)NC(N)=C1C#N",
    "MEASUREMENT_TARGET": "KM12 colon",
    "CLASSIFICATION": "TRUE"
  },
  {
    "MOLECULE": "COC(=O)C(C)NC(=O)c1ccccc1I(OS(=O)(=O)C(F)(F)F)c1ccccc1 (stereo not given)",
    "MEASUREMENT_TARGET": "KM12 colon",
    "CLASSIFICATION": "TRUE"
  },
  {
    "MOLECULE": "O=C(O)c1cc2ccccc2c2c1C(=O)c1ccccc1-2",
    "MEASUREMENT_TARGET": "KM12 colon",
    "CLASSIFICATION": "TRUE"
  },
  {
    "MOLECULE": "O=c1ccc2nc(-c3ccccn3)nn(-c3ccccc3)c-2c1",
    "MEASUREMENT_TARGET": "KM12 colon",
    "CLASSIFICATION": "TRUE"
  },
  {
    "MOLECULE": "COc1ccc(Nc2nc(N)c(C(=O)c3cccs3)s2)cc1",
    "MEASUREMENT_TARGET": "KM12 colon",
    "CLASSIFICATION": "FALSE"
  },
  {
    "MOLECULE": "C=C1C(=O)OC2CC3(C)OC3CC/C(C)=C/C(OC(C)=O)C12 (stereo not given)",
    "MEASUREMENT_TARGET": "KM12 colon",
    "CLASSIFICATION": "TRUE"
  },
  {
    "MOLECULE": "CC(=C/c1ccccc1)/C=C1/NC(=S)N(/C=C2\\C(=O)Oc3ccccc3C2=O)C1=O",
    "MEASUREMENT_TARGET": "KM12 colon",
    "CLASSIFICATION": "TRUE"
  }
]

----------
tested on: BT-549 breast; assay: NCI tumour cell line growth inhibition, 48 h; in the data active means GI50 below about 0.43 µM; inactive means the rest
Possible outcomes: active, inactive

[
  {
    "MOLECULE": "O=C(NC(=S)Nc1cc(Cl)ccc1O)c1cccc(Br)c1",
    "CLASSIFICATION": "inactive"
  },
  {
    "MOLECULE": "CCN(CC)C(=S)[S][Bi]([S]C(=S)N(CC)CC)[S]C(=S)N(CC)CC",
    "CLASSIFICATION": "active"
  },
  {
    "MOLECULE": "C=C1C(=O)O[C@H]2[C@H]1CC/C(COC(=O)NCc1ccc(Cn3c(=O)sn(-c4ccccc4)c3=O)cc1)=C\\CC[C@@]1(C)O[C@@H]21",
    "CLASSIFICATION": "inactive"
  },
  {
    "MOLECULE": "O=Nc1c(-c2c(O)[nH]c3ccc(Br)cc23)[nH]c2ccccc12",
    "CLASSIFICATION": "inactive"
  },
  {
    "MOLECULE": "O=C(CCCCC(=O)N/N=C\\c1ccccc1O)N/N=C\\c1ccccc1O",
    "CLASSIFICATION": "inactive"
  },
  {
    "MOLECULE": "COC(=O)C(C)NC(=O)c1ccccc1I(OS(=O)(=O)C(F)(F)F)c1ccccc1 (stereo not given)",
    "CLASSIFICATION": "inactive"
  },
  {
    "MOLECULE": "Cc1cc(I)cc(CN(C)CCCN2CCN(C)CC2)c1O",
    "CLASSIFICATION": "inactive"
  },
  {
    "MOLECULE": "CC#Cc1nc(Nc2cc(C)[nH]n2)c2ccccc2n1",
    "CLASSIFICATION": "inactive"
  },
  {
    "MOLECULE": "C[C@@H]1COCCN1c1cc(C2(O)C[C@H]3CC[C@@H](C2)O3)c2cnn(-c3ccn[nH]3)c2n1 (stereo not given in full)",
    "CLASSIFICATION": "active"
  },
  {
    "MOLECULE": "C[C@@H](Nc1nc(Nc2ccc(F)c(Cl)c2)nc2ccccc12)C1CC1",
    "CLASSIFICATION": "inactive"
  }
]

----------
tested on: SN12C renal; experiment: NCI tumour cell line growth inhibition, 48 h; in the data active = GI50 below about 0.43 µM; inactive = the rest
Possible outcomes: TRUE = active, FALSE = inactive

[
  {
    "SMILES_ENTRY": "O=Nc1c(-c2c(O)[nH]c3ccc(Br)cc23)[nH]c2ccccc12",
    "CLASSIFICATION": "FALSE"
  },
  {
    "SMILES_ENTRY": "C/C(=N\\NC(=S)N(C)C)c1ccccn1",
    "CLASSIFICATION": "TRUE"
  },
  {
    "SMILES_ENTRY": "CCN(CC)C(=S)[S][Bi]([S]C(=S)N(CC)CC)[S]C(=S)N(CC)CC",
    "CLASSIFICATION": "TRUE"
  },
  {
    "SMILES_ENTRY": "CC#Cc1nc(Nc2cc(C)[nH]n2)c2ccccc2n1",
    "CLASSIFICATION": "FALSE"
  },
  {
    "SMILES_ENTRY": "Nc1ncc(-c2cccc(S(N)(=O)=O)c2)c2scc(-c3ccc(F)c(Cl)c3)c12",
    "CLASSIFICATION": "FALSE"
  },
  {
    "SMILES_ENTRY": "C[C@@H](Nc1nc(Nc2ccc(F)c(Cl)c2)nc2ccccc12)C1CC1",
    "CLASSIFICATION": "FALSE"
  }
]

----------
system: HOP-62 NSCLC; assay: NCI tumour cell line growth inhibition, 48 h
RECORDED_METRIC: GI50

[
  {
    "COMPOUND": "O=c1oc2c(C(F)(F)F)cccc2cc1-c1csc(Nc2ccc(OCCF)cc2)n1",
    "MEASURED_VALUE": "0.0378 µM"
  },
  {
    "COMPOUND": "COc1c(B(O)O)cc(F)cc1-c1nc2ccc3[nH]ncc3c2c2c1CCCC2",
    "MEASURED_VALUE": "< 0.0212 µM"
  },
  {
    "COMPOUND": "CCCCCCCCCCCCCCCC1=NC(C)(C)CN1C(C)C",
    "MEASURED_VALUE": "1.63 µM"
  },
  {
    "COMPOUND": "COc1ccc2ccc3oc([N+](=O)[O-])cc3c2c1",
    "MEASURED_VALUE": "1.03 µM"
  },
  {
    "COMPOUND": "Cn1cc(C2=C(N3CCOCC3)C(=O)NC2=O)c2ccccc21",
    "MEASURED_VALUE": "> 25 µM"
  },
  {
    "COMPOUND": "Cc1ccc(-c2cc(O)c(-c3ccc(C)cc3C)cc2O)c(C)c1",
    "MEASURED_VALUE": "11.2 µM"
  },
  {
    "COMPOUND": "CCN(c1cc(C#CCN2CCOCC2)cc(C(=O)NCc2c(C)cc(C)[nH]c2=O)c1C)C1CCC(N(C)CCOC)CC1 (stereo unspecified)",
    "MEASURED_VALUE": "> 100 µM"
  },
  {
    "COMPOUND": "COc1cc(NC(=O)C2=C(N3CCOCC3)/C(=C/c3ccc(Cl)cc3)CC2)cc(OC)c1OC",
    "MEASURED_VALUE": "4.66 µM"
  },
  {
    "COMPOUND": "C=CC(COC(c1ccccc1)(c1ccccc1)c1ccccc1)N(CC)CC (stereo unspecified)",
    "MEASURED_VALUE": "3.93 µM"
  },
  {
    "COMPOUND": "COc1ccc(Cn2cc3c(c2-c2cc(OC)c(OC)c(OC)c2)CCc2cnoc2-3)cc1",
    "MEASURED_VALUE": "0.446 µM"
  },
  {
    "COMPOUND": "CN(C)CCCn1c(-c2nonc2N)nc2cnccc21",
    "MEASURED_VALUE": "> 25 µM"
  }
]
